# system under test: T1, recombinant human sc-uPA (human, UniProt P00749 21-431)
# T1 construct: 411 amino acid single-chain zymogen expressed in HEK293; the 20-residue signal peptide is not present in the mature protein; also called human single-chain uPA; pro-uPA
# assay info: SPR, mAb immobilised
Would you kindly list Kd for each of these binders?
State the answer as a number, implicitly in nM.

rec0266-0000-0010-VL_N90L (antibody, mouse IgG1, name in Kabat numbering, V domains shown) VH: DVKLVESGGGLVKPGGSLKLSCVASGFTFSSYTMSWVRQTPEKRLEWVATISGGGSHIYYADSVKGRFTISRDNAKNTLYLQMSSLKSEDTAIYYCTRDGRDGSWFAYWGQGTLVTVSA VL: DIVMTQSPATLSVTPGDRVSLSCRTSQSIGDYLHWYQQKSHESPRLLIKYVSQSISGIPSRFSGSGSGSDFTLSINSVESEDVGVYYCQLSHSFPLTFGSGTKLELKR has a reported Kd of 0.61

rec0266-0000-0010-VL_S91A (antibody, mouse IgG1, name in Kabat numbering, V domains shown) VH: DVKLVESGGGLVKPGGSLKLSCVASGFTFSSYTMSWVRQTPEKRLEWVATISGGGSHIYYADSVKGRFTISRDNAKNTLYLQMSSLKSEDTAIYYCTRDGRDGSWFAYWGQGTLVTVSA VL: DIVMTQSPATLSVTPGDRVSLSCRTSQSIGDYLHWYQQKSHESPRLLIKYVSQSISGIPSRFSGSGSGSDFTLSINSVESEDVGVYYCQNAHSFPLTFGSGTKLELKR has a reported Kd of 1.3

rec0266-0000-0010-VL_N90T (antibody, mouse IgG1, name in Kabat numbering, V domains shown) VH: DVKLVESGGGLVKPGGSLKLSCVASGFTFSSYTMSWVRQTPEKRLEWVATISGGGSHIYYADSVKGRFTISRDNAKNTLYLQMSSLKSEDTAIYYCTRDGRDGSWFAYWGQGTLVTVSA VL: DIVMTQSPATLSVTPGDRVSLSCRTSQSIGDYLHWYQQKSHESPRLLIKYVSQSISGIPSRFSGSGSGSDFTLSINSVESEDVGVYYCQTSHSFPLTFGSGTKLELKR has a reported Kd of 0.48

rec0266-0000-0010 (antibody, mouse IgG1, V domains shown, also called mAb rec0266-0000-0010) VH: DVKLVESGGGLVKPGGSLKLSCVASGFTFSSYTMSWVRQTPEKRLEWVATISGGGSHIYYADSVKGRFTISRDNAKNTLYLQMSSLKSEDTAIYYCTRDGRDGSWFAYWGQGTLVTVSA VL: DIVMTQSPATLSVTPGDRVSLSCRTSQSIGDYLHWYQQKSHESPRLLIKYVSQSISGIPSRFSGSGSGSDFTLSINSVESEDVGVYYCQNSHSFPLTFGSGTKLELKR has a reported Kd of 0.47

rec0266-0000-0010-VL_N90H (antibody, mouse IgG1, name in Kabat numbering, V domains shown) VH: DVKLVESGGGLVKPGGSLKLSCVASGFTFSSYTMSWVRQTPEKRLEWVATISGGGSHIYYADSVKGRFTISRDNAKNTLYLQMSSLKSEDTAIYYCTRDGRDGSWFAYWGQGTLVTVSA VL: DIVMTQSPATLSVTPGDRVSLSCRTSQSIGDYLHWYQQKSHESPRLLIKYVSQSISGIPSRFSGSGSGSDFTLSINSVESEDVGVYYCQHSHSFPLTFGSGTKLELKR has a reported Kd of 0.4
